# TESTED TARGET: hMAO-B (Homo sapiens, UniProt P27338)
# Construct: purchased Sigma Aldrich (Milan, Italy); host or cells: baculovirus-infected insect cells
# Sequence (P27338 whole entry): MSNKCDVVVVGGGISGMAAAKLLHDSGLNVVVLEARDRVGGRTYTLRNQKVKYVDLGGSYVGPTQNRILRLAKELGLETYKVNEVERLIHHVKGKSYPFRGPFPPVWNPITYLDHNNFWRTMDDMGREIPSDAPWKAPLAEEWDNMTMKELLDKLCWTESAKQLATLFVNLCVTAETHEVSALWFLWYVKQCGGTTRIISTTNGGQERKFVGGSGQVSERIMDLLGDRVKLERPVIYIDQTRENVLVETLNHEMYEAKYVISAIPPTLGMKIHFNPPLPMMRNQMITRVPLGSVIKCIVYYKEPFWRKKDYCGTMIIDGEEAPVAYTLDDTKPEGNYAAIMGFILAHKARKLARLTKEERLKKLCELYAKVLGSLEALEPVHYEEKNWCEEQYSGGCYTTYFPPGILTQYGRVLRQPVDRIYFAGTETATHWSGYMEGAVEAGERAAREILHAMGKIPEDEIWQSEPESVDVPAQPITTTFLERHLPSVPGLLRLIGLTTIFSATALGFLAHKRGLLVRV
# PROCEDURE TEXT: MAO-B inhibition, fluorimetric method with kynuramine as substrate
# Assay type: biochemical
# TEST SETTINGS: read-out: hMAO-B % Inhibition
# Experimental: Human recombinant AChE, BChE from human serum, and human MAOs from baculovirus-infected insect cells were purchased from Sigma Aldrich (Milan, Italy). […] All experiments were carried out in triplicate and results expressed as mean ± SEM. AChE/BChE and MAO A/B inhibition were, respectively, determined with the spectrophotometric method of Ellman, and a fluorimetric method using kynuramine as MAO substrate, as previously described.
PROPERTY MEASURED: inhibition at 10 µM
Respond with the figure and its unit, in that order.

Inquiry: # query: inhibition at 10 µM of entry O=c1ccc2cc(N(Cc3cn(CCn4ncc5ccc([N+](=O)[O-])cc54)nn3)S(=O)(=O)c3ccc(Cl)cc3)ccc2o1 [14c]
Reply text: 45%

Inquiry: # query: inhibition at 10 µM of entry COc1ccc(S(=O)(=O)N(Cc2cn(CCn3ncc4ccc([N+](=O)[O-])cc43)nn2)c2ccc3oc(=O)ccc3c2)cc1 [14b]
Reply text: 23%

Inquiry: # query: inhibition at 10 µM of entry C#CCN(c1ccc2oc(=O)ccc2c1)S(=O)(=O)c1ccc(C)cc1 [13a]
Reply text: 12%

Inquiry: # query: inhibition at 10 µM of entry O=c1ccc2cc(NS(=O)(=O)c3ccc(Cl)cc3)ccc2o1 [11c]
Reply text: 26%

Inquiry: # query: inhibition at 10 µM of entry COc1ccc(S(=O)(=O)Nc2ccc3oc(=O)ccc3c2)cc1 [11b]
Reply text: 34%

Inquiry: # query: inhibition at 10 µM of entry Cc1ccc(S(=O)(=O)N(Cc2cn(CCn3ncc4ccc([N+](=O)[O-])cc43)nn2)c2ccc3oc(=O)ccc3c2)cc1 [14a]
Reply text: 39%

Inquiry: # query: inhibition at 10 µM of entry Cc1ccc(S(=O)(=O)Nc2ccc3oc(=O)ccc3c2)cc1 [11a]
Reply text: 45%

Inquiry: # query: inhibition at 10 µM of entry C#CCN(c1ccc2oc(=O)ccc2c1)S(=O)(=O)c1ccc(OC)cc1 [13b]
Reply text: 28%

Inquiry: # query: inhibition at 10 µM of entry C#CCN(c1ccc2oc(=O)ccc2c1)S(=O)(=O)c1ccc(Cl)cc1 [13c]
Reply text: 20%

====

# TESTED TARGET: hAChE (human recombinant AChE) (Homo sapiens, UniProt P22303)
# Construct: purchased Sigma Aldrich (Milan, Italy)
# Sequence (P22303 32-614): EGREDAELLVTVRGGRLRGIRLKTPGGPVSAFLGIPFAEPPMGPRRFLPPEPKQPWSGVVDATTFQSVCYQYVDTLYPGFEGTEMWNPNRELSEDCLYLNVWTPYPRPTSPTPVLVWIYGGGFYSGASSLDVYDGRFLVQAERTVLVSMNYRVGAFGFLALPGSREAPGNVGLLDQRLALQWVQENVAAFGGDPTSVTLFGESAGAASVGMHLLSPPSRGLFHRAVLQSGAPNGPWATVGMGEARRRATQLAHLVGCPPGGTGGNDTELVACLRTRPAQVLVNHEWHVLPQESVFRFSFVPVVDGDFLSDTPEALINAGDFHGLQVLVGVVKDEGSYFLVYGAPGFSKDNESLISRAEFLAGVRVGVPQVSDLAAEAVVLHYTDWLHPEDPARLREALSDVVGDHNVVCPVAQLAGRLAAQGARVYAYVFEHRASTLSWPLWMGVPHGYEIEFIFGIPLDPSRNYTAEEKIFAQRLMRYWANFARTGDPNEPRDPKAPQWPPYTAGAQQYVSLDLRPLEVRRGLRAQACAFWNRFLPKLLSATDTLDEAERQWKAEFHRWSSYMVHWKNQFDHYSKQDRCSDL
# PROCEDURE TEXT: biochemical
PROPERTY MEASURED: inhibition at 10 µM (%)
Lab book: enter the figure in %, no units written.

Inquiry: # query: inhibition at 10 µM of entry Cc1ccc(S(=O)(=O)Nc2ccc3oc(=O)ccc3c2)cc1 [11a]
Reply text: 55

Inquiry: # query: inhibition at 10 µM of entry Cc1ccc(S(=O)(=O)N(Cc2cn(CCn3ncc4ccc([N+](=O)[O-])cc43)nn2)c2ccc3oc(=O)ccc3c2)cc1 [14a]
Reply text: 51

Inquiry: # query: inhibition at 10 µM of entry COc1ccc(S(=O)(=O)N(Cc2cn(CCn3ncc4ccc([N+](=O)[O-])cc43)nn2)c2ccc3oc(=O)ccc3c2)cc1 [14b]
Reply text: 44

Inquiry: # query: inhibition at 10 µM of entry O=c1ccc2cc(N(Cc3cn(CCn4ncc5ccc([N+](=O)[O-])cc54)nn3)S(=O)(=O)c3ccc(Cl)cc3)ccc2o1 [14c]
Reply text: 42

====

PROPERTY MEASURED: pIC50
The meaning of pIC50 here: minus log10 of the concentration in molar units.

Inquiry: Form entry - test system: hMAO-A (Homo sapiens, UniProt P21397); read-out: pIC50; molecule: Cc1ccc(S(=O)(=O)N(Cc2cn(CCn3ncc4ccc([N+](=O)[O-])cc43)nn2)c2ccc3oc(=O)ccc3c2)cc1 [14a]
Sequence (P21397 whole entry): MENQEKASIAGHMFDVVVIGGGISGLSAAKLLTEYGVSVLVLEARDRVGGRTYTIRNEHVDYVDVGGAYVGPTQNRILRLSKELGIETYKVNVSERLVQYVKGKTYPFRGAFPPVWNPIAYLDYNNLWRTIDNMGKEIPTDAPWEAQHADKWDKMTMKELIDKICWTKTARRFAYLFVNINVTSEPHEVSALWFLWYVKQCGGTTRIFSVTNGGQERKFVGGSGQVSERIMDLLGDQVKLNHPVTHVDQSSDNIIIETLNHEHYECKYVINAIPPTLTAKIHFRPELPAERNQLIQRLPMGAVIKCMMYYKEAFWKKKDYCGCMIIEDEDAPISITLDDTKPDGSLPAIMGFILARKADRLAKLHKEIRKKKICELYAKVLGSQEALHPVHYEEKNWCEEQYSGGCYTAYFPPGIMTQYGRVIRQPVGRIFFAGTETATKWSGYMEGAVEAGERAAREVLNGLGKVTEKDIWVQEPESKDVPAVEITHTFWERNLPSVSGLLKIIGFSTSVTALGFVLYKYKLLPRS
Reply text: 4.83

Inquiry: Form entry - test system: hMAO-A (Homo sapiens, UniProt P21397); read-out: pIC50; molecule: COc1ccc(S(=O)(=O)N(Cc2cn(CCn3ncc4ccc([N+](=O)[O-])cc43)nn2)c2ccc3oc(=O)ccc3c2)cc1 [14b]
Reply text: 4.77

Inquiry: Form entry - test system: hMAO-A (Homo sapiens, UniProt P21397); read-out: pIC50; molecule: Cc1ccc(S(=O)(=O)Nc2ccc3oc(=O)ccc3c2)cc1 [11a]
Reply text: 5.61

Inquiry: Form entry - test system: hMAO-A (Homo sapiens, UniProt P21397); read-out: pIC50; molecule: O=c1ccc2cc(N(Cc3cn(CCn4ncc5ccc([N+](=O)[O-])cc54)nn3)S(=O)(=O)c3ccc(Cl)cc3)ccc2o1 [14c]
Reply text: 4.55

====

# TESTED TARGET: hMAO-A (Homo sapiens)
# Construct: purchased Sigma Aldrich (Milan, Italy); host or cells: baculovirus-infected insect cells
# PROCEDURE TEXT: biochemical
# TEST SETTINGS: read-out: hMAO-A % Inhibition
PROPERTY MEASURED: inhibition at 10 µM (%)
Lab book: enter the figure in %, no units written.

Inquiry: # query: inhibition at 10 µM of entry O=c1ccc2cc(NS(=O)(=O)c3ccc(Cl)cc3)ccc2o1 [11c]
Reply text: 9

Inquiry: # query: inhibition at 10 µM of entry COc1ccc(S(=O)(=O)N(Cc2cn(CCn3ncc4ccc([N+](=O)[O-])cc43)nn2)c2ccc3oc(=O)ccc3c2)cc1 [14b]
Reply text: 81

Inquiry: # query: inhibition at 10 µM of entry O=c1ccc2cc(N(Cc3cn(CCn4ncc5ccc([N+](=O)[O-])cc54)nn3)S(=O)(=O)c3ccc(Cl)cc3)ccc2o1 [14c]
Reply text: 67

Inquiry: # query: inhibition at 10 µM of entry COc1ccc(S(=O)(=O)Nc2ccc3oc(=O)ccc3c2)cc1 [11b]
Reply text: 26

====

# TESTED TARGET: hMAO-A (Homo sapiens, UniProt P21397)
# Construct: purchased Sigma Aldrich (Milan, Italy); host or cells: baculovirus-infected insect cells
# PROCEDURE TEXT: biochemical
# TEST SETTINGS: read-out: hMAO-A % Inhibition
Answer each item with its documented inhibition at 10 µM.
Lab book: enter the figure in %, no units written.

Inquiry: # query: inhibition at 10 µM of entry C#CCN(c1ccc2oc(=O)ccc2c1)S(=O)(=O)c1ccc(OC)cc1 [13b]
Reply text: 22

Inquiry: # query: inhibition at 10 µM of entry Cc1ccc(S(=O)(=O)Nc2ccc3oc(=O)ccc3c2)cc1 [11a]
Reply text: 76

Inquiry: # query: inhibition at 10 µM of entry C#CCN(c1ccc2oc(=O)ccc2c1)S(=O)(=O)c1ccc(C)cc1 [13a]
Reply text: 13

Inquiry: # query: inhibition at 10 µM of entry C#CCN(c1ccc2oc(=O)ccc2c1)S(=O)(=O)c1ccc(Cl)cc1 [13c]
Reply text: 37

Inquiry: # query: inhibition at 10 µM of entry Cc1ccc(S(=O)(=O)N(Cc2cn(CCn3ncc4ccc([N+](=O)[O-])cc43)nn2)c2ccc3oc(=O)ccc3c2)cc1 [14a]
Reply text: 76

====

# TESTED TARGET: hAChE (human recombinant AChE) (Homo sapiens)
# Construct: purchased Sigma Aldrich (Milan, Italy)
# PROCEDURE TEXT: biochemical
Answer each item with its documented inhibition at 10 µM.
Lab book: enter the figure in %, no units written.

Inquiry: # query: inhibition at 10 µM of entry O=c1ccc2cc(NS(=O)(=O)c3ccc(Cl)cc3)ccc2o1 [11c]
Reply text: 55

Inquiry: # query: inhibition at 10 µM of entry C#CCN(c1ccc2oc(=O)ccc2c1)S(=O)(=O)c1ccc(C)cc1 [13a]
Reply text: 60

Inquiry: # query: inhibition at 10 µM of entry C#CCN(c1ccc2oc(=O)ccc2c1)S(=O)(=O)c1ccc(OC)cc1 [13b]
Reply text: 49

Inquiry: # query: inhibition at 10 µM of entry C#CCN(c1ccc2oc(=O)ccc2c1)S(=O)(=O)c1ccc(Cl)cc1 [13c]
Reply text: 48

Inquiry: # query: inhibition at 10 µM of entry COc1ccc(S(=O)(=O)Nc2ccc3oc(=O)ccc3c2)cc1 [11b]
Reply text: 57
